System: A498
experiment_notes: Growth inhibition of human A498 cells assessed as cell growth inhibition
Format: functional
measurement_label: GI50

Previously resolved entries follow.
smiles_text: CCCCCC(=O)OCC(=O)O[C@@H]1C[C@]2(C(C)C)O[C@@]1(C)[C@@H]1CC[C@@H](C)[C@H]1[C@@H]2OC(=O)/C=C/c1ccccc1
subject_of_test: A498
GI50: 52 nM

smiles_text: CC(C)[C@@]12C[C@@H](OS(C)(=O)=O)[C@@](C)(O1)[C@@H]1CC[C@@H](C)[C@H]1[C@@H]2OC(=O)/C=C/c1ccccc1
subject_of_test: A498
GI50: 145 nM

smiles_text: CC(C)[C@@]12C[C@@H](OC(=O)COC(=O)c3ccccc3)[C@@](C)(O1)[C@@H]1CC[C@@H](C)[C@H]1[C@@H]2OC(=O)/C=C/c1ccccc1
subject_of_test: A498
GI50: 155 nM

smiles_text: CC(C)[C@@]12C[C@@H](OC(=O)COS(C)(=O)=O)[C@@](C)(O1)[C@@H]1CC[C@@H](C)[C@H]1[C@@H]2OC(=O)/C=C/c1ccccc1
subject_of_test: A498
GI50: 1300 nM

smiles_text: CC(=O)OCC(=O)O[C@@H]1C[C@]2(C(C)C)O[C@@]1(C)[C@@H]1CC[C@@H](C)[C@H]1[C@@H]2OC(=O)/C=C/c1ccccc1
subject_of_test: A498
GI50: 40 nM

smiles_text: CC(C)[C@@]12C[C@@H](OC(=O)COC(=O)/C=C/c3ccccc3)[C@@](C)(O1)[C@@H]1CC[C@@H](C)[C@H]1[C@@H]2OC(=O)/C=C/c1ccccc1
subject_of_test: A498
GI50: 44 nM

smiles_text: CC(C)=CC(=O)OCC(=O)O[C@@H]1C[C@]2(C(C)C)O[C@@]1(C)[C@@H]1CC[C@@H](C)[C@H]1[C@@H]2OC(=O)/C=C/c1ccccc1
subject_of_test: A498
GI50: 178 nM

smiles_text: CC(C)[C@@]12C[C@@H](OC(=O)[C@@H]3CO3)[C@@](C)(O1)[C@@H]1CC[C@@H](C)[C@H]1[C@@H]2OC(=O)/C=C/c1ccccc1
subject_of_test: A498
GI50: 2040 nM

smiles_text: CC(C)[C@@]12C[C@@H](OC(=O)[C@H]3CO3)[C@@](C)(O1)[C@@H]1CC[C@@H](C)[C@H]1[C@@H]2OC(=O)/C=C/c1ccccc1
subject_of_test: A498
GI50: 224 nM

Switching to the query record.
*Q* Given the molecule CC(C)[C@@]12C[C@@H](OC(=O)/C=C/c3ccccc3)[C@@](C)(O1)[C@@H]1CC[C@@H](C)[C@H]1[C@@H]2OC(=O)/C=C/c1ccccc1 , write its reported GI50.
*A* > 100000 nM

----------
Tested on: RXF 393
experiment_notes: Growth inhibition of human RXF 393 cells assessed as inhibition of cell growth
Type: functional
measurement_label: GI50 (µM)
Numbers only; they are read as µM.

Use these answered entries as a reference point.
smiles_text: CC(C)[C@@]12C[C@@H](OS(C)(=O)=O)[C@@](C)(O1)[C@@H]1CC[C@@H](C)[C@H]1[C@@H]2OC(=O)/C=C/c1ccccc1
GI50 / µM: 0.427
--
smiles_text: CC(C)[C@@]12C[C@@H](OC(=O)COC(=O)c3ccccc3)[C@@](C)(O1)[C@@H]1CC[C@@H](C)[C@H]1[C@@H]2OC(=O)/C=C/c1ccccc1
GI50 / µM: 0.282
--
smiles_text: CC(C)[C@@]12C[C@@H](OC(=O)[C@H]3CO3)[C@@](C)(O1)[C@@H]1CC[C@@H](C)[C@H]1[C@@H]2OC(=O)/C=C/c1ccccc1
GI50 / µM: 0.17

*Q* Give recorded GI50. CC(=O)OCC(=O)O[C@@H]1C[C@]2(C(C)C)O[C@@]1(C)[C@@H]1CC[C@@H](C)[C@H]1[C@@H]2OC(=O)/C=C/c1ccccc1
*A* 0.209
